Field: solubility. Provide a value for each of the compounds that follow.
Experiment: Solubility
Assay type: physicochemical
Conditions: read-out: S
Answer by giving the amount and then stating its unit.

(Q) Name the recorded solubility for CC(=O)Oc1ccc2oc(S(N)(=O)=O)cc2c1 .
(A) 190 µg/mL

(Q) Any idea what solubility was measured for Nc1ccc2cc(S(N)(=O)=O)oc2c1 ?
(A) 80 µg/mL

(Q) solubility for NS(=O)(=O)c1cc2ccc(O)cc2o1 ?
(A) 2800 µg/mL

(Q) May I ask what solubility has been recorded for NS(=O)(=O)c1cc2ccccc2[nH]1 ?
(A) 850 µg/mL

(Q) Please look up its solubility: NS(=O)(=O)c1cc2cc3c(cc2[nH]1)OCO3
(A) 50 µg/mL

(Q) Looking for the measured solubility of COc1ccc2oc(S(N)(=O)=O)cc2c1 , can you help?
(A) 540 µg/mL

(Q) Item under review: NS(=O)(=O)c1cc2ccccc2o1 . Reported solubility?
(A) 480 µg/mL

(Q) Which solubility is reported for this compound? NS(=O)(=O)c1cc2ccc(O)cc2s1
(A) 430 µg/mL

(Q) Reported solubility, compound Nc1ccc2oc(S(N)(=O)=O)cc2c1 : ____
(A) 280 µg/mL

(Q) Form field: reported solubility of NS(=O)(=O)c1cc2cc(O)ccc2[nH]1
(A) 1900 µg/mL

(Q) Would you kindly share the measured solubility for COc1ccc2[nH]c(S(N)(=O)=O)cc2c1 ?
(A) 150 µg/mL

(Q) Need solubility, item CC(=O)Oc1ccc2[nH]c(S(N)(=O)=O)cc2c1
(A) 220 µg/mL

(Q) Which solubility value is on record for NS(=O)(=O)c1cc2ccc(O)cc2[nH]1 ?
(A) 4800 µg/mL

(Q) If you can, please state the reported solubility value of COc1ccc2cc(S(N)(=O)=O)[nH]c2c1 .
(A) 520 µg/mL

(Q) Requested field: solubility. Item: NS(=O)(=O)c1cc2cc(O)ccc2o1
(A) 2100 µg/mL

(Q) Reported solubility for COc1ccc2cc(S(N)(=O)=O)n(C)c2c1 : what is it?
(A) 40 µg/mL
